target_or_test_system: KRas G12V (Homo sapiens, UniProt P01116, G12V);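 also: KRas binding measured by TR-FRET displacement at room temperature, IC50 fitted from percent of control values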
Sequence (P01116 1-169 isoform P01116-2 G12V): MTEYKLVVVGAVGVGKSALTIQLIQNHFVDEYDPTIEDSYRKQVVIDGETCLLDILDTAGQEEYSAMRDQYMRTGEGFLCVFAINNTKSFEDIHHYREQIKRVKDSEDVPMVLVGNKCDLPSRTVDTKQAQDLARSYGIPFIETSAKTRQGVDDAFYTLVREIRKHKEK
assay_comment: biochemical
Hi there, I'd appreciate the recorded log10 of IC50 for every entry that follows.
// stored as log10 of IC50 expressed in µM

So the reported log10 of IC50 for CC(=O)Nc1cc2n(n1)CCCN(c1nc(OCC34CCCN3CCC4)nc3c(F)c(-c4cccc5cccc(F)c45)ncc13)C2 [Example 275] , on KRas G12V (Homo sapiens, UniProt P01116, G12V), turned out to be 0.96

So the reported log10 of IC50 for CC1(CNc2nc(OCC34CCCN3CCC4)nc3c(F)c(-c4cccc5cccc(F)c45)ncc23)CNC(=O)C1 (centres unmarked) [Example 35] , on KRas G12V (Homo sapiens, UniProt P01116, G12V), turned out to be 0.40

So the reported log10 of IC50 for CCc1cccc2cccc(-c3ncc4c(NCc5cn[nH]c5)nc(OCC56CCCN5CCC6)nc4c3F)c12 [Example 287] , on KRas G12V (Homo sapiens, UniProt P01116, G12V), turned out to be -0.65

So the reported log10 of IC50 for CS(=O)(=O)C1CCCCN(c2nc(OCC34CCCN3CCC4)nc3c(F)c(-c4cccc5cccc(F)c45)ncc23)C1 (centres unmarked) [Example 250] , on KRas G12V (Homo sapiens, UniProt P01116, G12V), turned out to be 0.53

So the reported log10 of IC50 for NS(=O)(=O)NC1CCCN(c2nc(OCC34CCCN3CCC4)nc3c(F)c(-c4cccc5cccc(F)c45)ncc23)C1 (centres unmarked) [Example 240] , on KRas G12V (Homo sapiens, UniProt P01116, G12V), turned out to be 0.19

So the reported log10 of IC50 for O=C1NCC2(CCCN(c3nc(OCC45CCCN4CCC5)nc4c(F)c(-c5cccc6cccc(F)c56)ncc34)C2)N1 (centres unmarked) [Example 45] , on KRas G12V (Homo sapiens, UniProt P01116, G12V), turned out to be -0.72

So the reported log10 of IC50 for O=c1ccc(CNc2nc(OCC34CCCN3CCC4)nc3c(F)c(-c4cccc5cccc(F)c45)ncc23)c[nH]1 [Example 96] , on KRas G12V (Homo sapiens, UniProt P01116, G12V), turned out to be 0.29

So the reported log10 of IC50 for Fc1c(-c2cccc3cccc(F)c23)ncc2c(NCCc3c[nH]c4ncccc34)nc(OCC34CCCN3CCC4)nc12 [Example 212] , on KRas G12V (Homo sapiens, UniProt P01116, G12V), turned out to be 0.13

So the reported log10 of IC50 for C[C@@]1(O)CCCN(c2nc(OC[C@@]34CCCN3C[C@H](F)C4)nc3c(F)c(-c4c5ccccc5cc5[nH]ncc45)ncc23)C1 [Example 154] , on KRas G12V (Homo sapiens, UniProt P01116, G12V), turned out to be -1.55

So the reported log10 of IC50 for CSc1cccc2cccc(-c3ncc4c(N5CCCC6(CC(=O)N6)C5)nc(OCC56CCCN5CCC6)nc4c3F)c12 (centres unmarked) [Example 469] , on KRas G12V (Homo sapiens, UniProt P01116, G12V), turned out to be -0.98

So the reported log10 of IC50 for Fc1c(-c2cccc3cccc(F)c23)ncc2c(N3CCCC4CC43)nc(OCC34CCCN3CCC4)nc12 (centres unmarked) [Example 31] , on KRas G12V (Homo sapiens, UniProt P01116, G12V), turned out to be 1.12

So the reported log10 of IC50 for CCc1c(F)ccc2cc(O)cc(-c3ncc4c(N5C[C@H]6C[C@@H](C5)[C@H](CO)[C@H]6O)nc(OC[C@@]56CCCN5C[C@H](F)C6)nc4c3F)c12 [Example 486] , on KRas G12V (Homo sapiens, UniProt P01116, G12V), turned out to be -0.77

So the reported log10 of IC50 for CCc1c(F)ccc2cc(O)cc(-c3ncc4c(N5CCCC6(CCS(=N)(=O)C6)C5)nc(OC[C@@]56CCCN5C[C@H](F)C6)nc4c3F)c12 (some centres unmarked) [Example 508] , on KRas G12V (Homo sapiens, UniProt P01116, G12V), turned out to be -1.92

So the reported log10 of IC50 for OC1CCCN(c2nc(OCC34CCCN3CCC4)nc3c(F)c(-c4cccc5cccc(F)c45)ncc23)CC1 (centres unmarked) [Example 129] , on KRas G12V (Homo sapiens, UniProt P01116, G12V), turned out to be 0.45

So the reported log10 of IC50 for CCc1c(F)ccc2cc(O)cc(-c3ncc4c(N5CCC(F)(F)C(O)C5)nc(OC[C@@]56CCCN5C[C@H](F)C6)nc4c3F)c12 (some centres unmarked) [Example 191] , on KRas G12V (Homo sapiens, UniProt P01116, G12V), turned out to be -2.40

So the reported log10 of IC50 for OCc1n[nH]c(CNc2nc(OCC34CCCN3CCC4)nc3c(F)c(-c4cccc5cccc(Cl)c45)ncc23)n1 [Example 105] , on KRas G12V (Homo sapiens, UniProt P01116, G12V), turned out to be 0.45

So the reported log10 of IC50 for Fc1c(-c2cccc3cccc(F)c23)ncc2c(N3CC=CCC3)nc(OCC34CCCN3CCC4)nc12 [Example 123] , on KRas G12V (Homo sapiens, UniProt P01116, G12V), turned out to be 0.50

So the reported log10 of IC50 for Fc1c(-c2cccc3cccc(F)c23)ncc2c(N3CCSCC3)nc(OCC34CCCN3CCC4)nc12 [Example 50] , on KRas G12V (Homo sapiens, UniProt P01116, G12V), turned out to be 1.35

So the reported log10 of IC50 for CCc1c(F)ccc2cc(O)cc(-c3ncc4c(N5CCCC6(CC(F)C6)C5)nc(OC[C@@]56CCCN5C[C@H](F)C6)nc4c3F)c12 (some centres unmarked) [Example 344] , on KRas G12V (Homo sapiens, UniProt P01116, G12V), turned out to be -1.08

So the reported log10 of IC50 for CCc1c(F)ccc2cc(O)cc(-c3ncc4c(NC[C@@H]5COC[C@@H]5O)nc(OC[C@@]56CCCN5C[C@H](F)C6)nc4c3F)c12 (single isomer, unassigned) [Example 493] , on KRas G12V (Homo sapiens, UniProt P01116, G12V), turned out to be -1.96

So the reported log10 of IC50 for N#Cc1cccnc1N1CCN(c2nc(OCC34CCCN3CCC4)nc3c(F)c(-c4cccc5cccc(F)c45)ncc23)CC1 [Example 209] , on KRas G12V (Homo sapiens, UniProt P01116, G12V), turned out to be 0.37
